- Test system: CEM-DNR
- ASSAY_DETAILS: Cytotoxicity against human CEM-DNR cells assessed as inhibition of cell growth incubated for 72 hrs by MTS assay
- Type: functional, cell-based
Hi there, I'd appreciate the recorded pIC50 for every entry that follows.
Remember, pIC50 is on a log scale: it is -log10 of the molar concentration.

## Task If you can, please state the reported pIC50 value of C=C(C)[C@@H]1CC[C@]2(C(=O)O)CC[C@]3(C)[C@H](CC[C@@H]4[C@@]5(C)CC=C(c6cccc(O)c6)C(C)(C)[C@@H]5CC[C@]43C)[C@@H]12 .
## Result 5.40

## Task Query C=C(C)[C@@H]1CC[C@]2(C(=O)O)CC[C@]3(C)[C@H](CC[C@@H]4[C@@]5(C)CC=C(c6cccc(N)c6)C(C)(C)[C@@H]5CC[C@]43C)[C@@H]12 next
## Result 5.05

## Task Also C=C(C)[C@@H]1CC[C@]2(C(=O)O)CC[C@]3(C)[C@H](CC[C@@H]4[C@@]5(C)CC=C(c6ccccc6N)C(C)(C)[C@@H]5CC[C@]43C)[C@@H]12 ?
## Result 4.34

## Task Can you handle C=C(C)[C@@H]1CC[C@]2(C(=O)O)CC[C@]3(C)[C@H](CC[C@@H]4[C@@]5(C)CC=C(c6ccccc6OC)C(C)(C)[C@@H]5CC[C@]43C)[C@@H]12 next?
## Result 4.62

## Task Then this compound: C=C(C)[C@@H]1CC[C@]2(C(=O)O)CC[C@]3(C)[C@H](CC[C@@H]4[C@@]5(C)CC=C(c6ccc(N)cc6)C(C)(C)[C@@H]5CC[C@]43C)[C@@H]12
## Result 4.96

====

Please go through the items and note down their pIC50.
- Test system: CCRF-CEM
- ASSAY_DETAILS: Cytotoxicity against human CCRF-CEM cells assessed as inhibition of cell growth incubated for 72 hrs by MTS assay
- Format: functional, cell-based
pIC50 (log units): -log10 of the concentration in mol/L.

## Task Query: pIC50; subject: C=C(C)[C@@H]1CC[C@]2(C(=O)O)CC[C@]3(C)[C@H](CC[C@@H]4[C@@]5(C)CC=C(c6ccc(OC)cc6)C(C)(C)[C@@H]5CC[C@]43C)[C@@H]12
## Result 4.64

## Task Same read-out for C=C(C)[C@@H]1CC[C@]2(C(=O)O)CC[C@]3(C)[C@H](CC[C@@H]4[C@@]5(C)CC=C(c6ccc(N)cc6)C(C)(C)[C@@H]5CC[C@]43C)[C@@H]12 ?
## Result 5.42

## Task Continue with C=C(C)[C@@H]1CC[C@]2(C(=O)O)CC[C@]3(C)[C@H](CC[C@@H]4[C@@]5(C)CC=C(c6ccccc6N)C(C)(C)[C@@H]5CC[C@]43C)[C@@H]12
## Result 4.96

## Task // same read-out, input: C=C(C)[C@@H]1CC[C@]2(C(=O)O)CC[C@]3(C)[C@H](CC[C@@H]4[C@@]5(C)CC=C(c6cccc([N+](=O)[O-])c6)C(C)(C)[C@@H]5CC[C@]43C)[C@@H]12
## Result 4.74

## Task Now the molecule C=C(C)[C@@H]1CC[C@]2(C(=O)O)CC[C@]3(C)[C@H](CC[C@@H]4[C@@]5(C)CC=C(c6cccc(C(=O)OC)c6)C(C)(C)[C@@H]5CC[C@]43C)[C@@H]12
## Result 4.77
